- method.notes: HRO761 blood PK in SW48 tumour-bearing mice
- Assay type: in vivo, mouse
- condition: female, mouse, whole blood, oral, 20 mg/kg, Free HRO761 blood concentration, Mean, 20mg/kg po, qd; 1 h
experimental.readout: concentration at 1 h (nM)
Hi! Could you send only the number? It should be in nM, unit omitted.

For reference, reported concentration at 1 h for "CCc1c(N2CCN(C(=O)c3ncnc(C)c3O)CC2)c(=O)n2nc(C3=CCOCC3)nc2n1CC(=O)Nc1ccc(C(F)(F)F)cc1Cl" stands at 670

* * *

- method.notes: logD / logP
- Type: physicochemical
experimental.readout: logP
Lab note: record just the number, no unit beside it.

The reported logP of the compound CCc1c(N2CCN(C(=O)c3ncnc(C)c3O)CC2)c(=O)n2nc(C3=CCOCC3)nc2n1CC(=O)Nc1ccc(C(F)(F)F)cc1Cl [HRO761] was 3.4
